method description: Pharmacokinetics of orally administered squalamine (ENT-01), Phase 2 trial
Type: in vivo
condition context: human, plasma, po, 25 mg, Stage 1, 25 mg oral, 9 patients; read-out: Tmax (median value)
value kind: Tmax

Ask: For CC(C)[C@@H](CC[C@@H](C)[C@H]1CC[C@H]2[C@@H]3[C@H](O)C[C@H]4C[C@@H](NCCCNCCCCN)CC[C@]4(C)[C@H]3CC[C@]12C)OS(=O)(=O)O (single isomer, unassigned) [squalamine (ENT-01)] , what is its reported Tmax?
Reply: 1 h

* * *

method description: Pharmacokinetics of orally administered squalamine (ENT-01), Phase 2 trial
Format: in vivo
condition context: human, plasma, po, 75 mg, Stage 1, 75 mg oral, n = 2; read-out: T½ (converted)
value kind: half-life

Ask: For CC(C)[C@@H](CC[C@@H](C)[C@H]1CC[C@H]2[C@@H]3[C@H](O)C[C@H]4C[C@@H](NCCCNCCCCN)CC[C@]4(C)[C@H]3CC[C@]12C)OS(=O)(=O)O (single isomer, unassigned) [squalamine (ENT-01)] , what is its reported half-life?
Reply: 2.8 h
